# credit: the NIST ThermoML archive (doi:10.1021/je060247x)

- Experimental setup: 363.15 K; 4000 kPa; Liquid
Result type: mass density (kg/m3)
Supply the numeric figure in kg/m3, leaving out any unit text.

Previously resolved entries follow.
> print(dat)
                                   compound   value
1  CCCCn1cc[n+](C)c1.O=S(=O)([O-])C(F)(F)F [1-butyl-3-methylimidazolium trifluoromethanesulfonate]  1249.7
2  CCCCn1cc[n+](C)c1C.F[P-](F)(F)(F)(F)F [1-butyl-2,3-dimethylimidazolium hexafluorophosphate]  1300.1
3  CCCCCCCC[n+]1ccn(C)c1.F[B-](F)(F)F [1-methyl-3-octylimidazolium tetrafluoroborate]    1061
4  CCCCn1cc[n+](C)c1.F[B-](F)(F)F [1-butyl-3-methylimidazolium tetrafluoroborate]  1156.9
5  CCCCCCn1cc[n+](C)c1.F[P-](F)(F)(F)(F)F [1-hexyl-3-methylimidazolium hexafluorophosphate]  1243.3

Let us examine a further case.
[in] Could you share which mass density value was measured for CCCCCCCC[n+]1ccn(C)c1.F[P-](F)(F)(F)(F)F [1-octyl-3-methylimidazolium hexafluorophosphate] ?
[out] 1189

---

- Experimental setup: 383.15 K; 1000 kPa; Liquid
± gives the expanded uncertainty stated by the source.
Listed here: items and their measured mass density.

> print(dat)
                                   compound               value
1  CCCCn1cc[n+](C)c1C.F[P-](F)(F)(F)(F)F [1-butyl-2,3-dimethylimidazolium hexafluorophosphate]    1284 ± 3.2 kg/m3
2  CCCCCCCC[n+]1ccn(C)c1.F[B-](F)(F)F [1-methyl-3-octylimidazolium tetrafluoroborate]  1047.2 ± 0.8 kg/m3
3  CCCCCCCC[n+]1ccn(C)c1.F[P-](F)(F)(F)(F)F [1-octyl-3-methylimidazolium hexafluorophosphate]  1173.5 ± 2.4 kg/m3
4  CCCCCCn1cc[n+](C)c1.F[P-](F)(F)(F)(F)F [1-hexyl-3-methylimidazolium hexafluorophosphate]  1227.2 ± 2.8 kg/m3
5  CCCCn1cc[n+](C)c1.O=S(=O)([O-])C(F)(F)F [1-butyl-3-methylimidazolium trifluoromethanesulfonate]  1233.1 ± 1.4 kg/m3

Let us examine a further case.
[in] Could you share which mass density value was measured for CCCCn1cc[n+](C)c1.F[B-](F)(F)F [1-butyl-3-methylimidazolium tetrafluoroborate] ?
[out] 1142.5 ± 2.2 kg/m3

---

- Experimental setup: 293.15 K; 3000 kPa; Liquid
Listed here: items and their measured mass density.
Supply the numeric figure in kg/m3, leaving out any unit text.

Previously resolved entries follow.
> print(dat)
                                   compound   result.type   value
1  CCCCCCn1cc[n+](C)c1.F[P-](F)(F)(F)(F)F [1-hexyl-3-methylimidazolium hexafluorophosphate]  mass density  1301.4
2  CCCCn1cc[n+](C)c1.O=S(=O)([O-])C(F)(F)F [1-butyl-3-methylimidazolium trifluoromethanesulfonate]  mass density  1307.7

[in] Could you share which mass density value was measured for CCCCn1cc[n+](C)c1.F[B-](F)(F)F [1-butyl-3-methylimidazolium tetrafluoroborate] ?
[out] 1208.2

[in] Could you share which mass density value was measured for CCCCCCCC[n+]1ccn(C)c1.F[B-](F)(F)F [1-methyl-3-octylimidazolium tetrafluoroborate] ?
[out] 1110

[in] Could you share which mass density value was measured for CCCCCCCC[n+]1ccn(C)c1.F[P-](F)(F)(F)(F)F [1-octyl-3-methylimidazolium hexafluorophosphate] ?
[out] 1244.1

---

Listed here: items and their measured mass density.
- Experimental setup: 333.15 K; 100 kPa; Liquid
Supply the numeric figure in kg/m3, leaving out any unit text.

Previously resolved entries follow.
> print(dat)
                                   compound   result.type   value
1  CCCCn1cc[n+](C)c1C.F[P-](F)(F)(F)(F)F [1-butyl-2,3-dimethylimidazolium hexafluorophosphate]  mass density  1321.9
2  CCCCn1cc[n+](C)c1.F[B-](F)(F)F [1-butyl-3-methylimidazolium tetrafluoroborate]  mass density  1175.8

Let us examine a further case.
[in] Could you share which mass density value was measured for CCCCCCCC[n+]1ccn(C)c1.F[B-](F)(F)F [1-methyl-3-octylimidazolium tetrafluoroborate] ?
[out] 1078.2

---

Listed here: items and their measured mass density.
- Experimental setup: 343.15 K; 5000 kPa; Liquid
Supply the numeric figure in kg/m3, leaving out any unit text.

Previously resolved entries follow.
> print(dat)
                                   compound   result.type   value
1  CCCCCCCC[n+]1ccn(C)c1.F[P-](F)(F)(F)(F)F [1-octyl-3-methylimidazolium hexafluorophosphate]  mass density  1204.3
2  CCCCCCCC[n+]1ccn(C)c1.F[B-](F)(F)F [1-methyl-3-octylimidazolium tetrafluoroborate]  mass density  1074.2
3  CCCCn1cc[n+](C)c1.O=S(=O)([O-])C(F)(F)F [1-butyl-3-methylimidazolium trifluoromethanesulfonate]  mass density  1265.8
4  CCCCn1cc[n+](C)c1C.F[P-](F)(F)(F)(F)F [1-butyl-2,3-dimethylimidazolium hexafluorophosphate]  mass density  1316.3
5  CCCCn1cc[n+](C)c1.F[B-](F)(F)F [1-butyl-3-methylimidazolium tetrafluoroborate]  mass density  1170.8

[in] Could you share which mass density value was measured for CCCCCCn1cc[n+](C)c1.F[P-](F)(F)(F)(F)F [1-hexyl-3-methylimidazolium hexafluorophosphate] ?
[out] 1259.2

---

Listed here: items and their measured mass density.
- Experimental setup: 323.15 K; 1000 kPa; Liquid
Supply the numeric figure in kg/m3, leaving out any unit text.

> print(dat)
                                   compound   result.type   value
1  CCCCCCn1cc[n+](C)c1.F[P-](F)(F)(F)(F)F [1-hexyl-3-methylimidazolium hexafluorophosphate]  mass density  1273.2

[in] Could you share which mass density value was measured for CCCCn1cc[n+](C)c1C.F[P-](F)(F)(F)(F)F [1-butyl-2,3-dimethylimidazolium hexafluorophosphate] ?
[out] 1331.4

[in] Could you share which mass density value was measured for CCCCn1cc[n+](C)c1.O=S(=O)([O-])C(F)(F)F [1-butyl-3-methylimidazolium trifluoromethanesulfonate] ?
[out] 1279.3

[in] Could you share which mass density value was measured for CCCCCCCC[n+]1ccn(C)c1.F[P-](F)(F)(F)(F)F [1-octyl-3-methylimidazolium hexafluorophosphate] ?
[out] 1218.2

[in] Could you share which mass density value was measured for CCCCCCCC[n+]1ccn(C)c1.F[B-](F)(F)F [1-methyl-3-octylimidazolium tetrafluoroborate] ?
[out] 1085.9

[in] Could you share which mass density value was measured for CCCCn1cc[n+](C)c1.F[B-](F)(F)F [1-butyl-3-methylimidazolium tetrafluoroborate] ?
[out] 1183.5

---

- Experimental setup: 303.15 K; 1000 kPa; Liquid
Result type: mass density (kg/m3)
Supply the numeric figure in kg/m3, leaving out any unit text.

> print(dat)
                                   molecule   value
1  CCCCCCn1cc[n+](C)c1.F[P-](F)(F)(F)(F)F [1-hexyl-3-methylimidazolium hexafluorophosphate]  1291.1

[in] Could you share which mass density value was measured for CCCCn1cc[n+](C)c1.F[B-](F)(F)F [1-butyl-3-methylimidazolium tetrafluoroborate] ?
[out] 1199.1

[in] Could you share which mass density value was measured for CCCCn1cc[n+](C)c1.O=S(=O)([O-])C(F)(F)F [1-butyl-3-methylimidazolium trifluoromethanesulfonate] ?
[out] 1297.1

[in] Could you share which mass density value was measured for CCCCCCCC[n+]1ccn(C)c1.F[P-](F)(F)(F)(F)F [1-octyl-3-methylimidazolium hexafluorophosphate] ?
[out] 1234.4

[in] Could you share which mass density value was measured for CCCCCCCC[n+]1ccn(C)c1.F[B-](F)(F)F [1-methyl-3-octylimidazolium tetrafluoroborate] ?
[out] 1101.1

---

- Experimental setup: 313.15 K; 3000 kPa; Liquid
Result type: mass density (kg/m3)
Supply the numeric figure in kg/m3, leaving out any unit text.

> print(dat)
                                   molecule   value
1  CCCCn1cc[n+](C)c1.F[B-](F)(F)F [1-butyl-3-methylimidazolium tetrafluoroborate]  1192.2

[in] Could you share which mass density value was measured for CCCCCCCC[n+]1ccn(C)c1.F[B-](F)(F)F [1-methyl-3-octylimidazolium tetrafluoroborate] ?
[out] 1094.4

[in] Could you share which mass density value was measured for CCCCn1cc[n+](C)c1.O=S(=O)([O-])C(F)(F)F [1-butyl-3-methylimidazolium trifluoromethanesulfonate] ?
[out] 1289.3

[in] Could you share which mass density value was measured for CCCCn1cc[n+](C)c1C.F[P-](F)(F)(F)(F)F [1-butyl-2,3-dimethylimidazolium hexafluorophosphate] ?
[out] 1341.2

[in] Could you share which mass density value was measured for CCCCCCCC[n+]1ccn(C)c1.F[P-](F)(F)(F)(F)F [1-octyl-3-methylimidazolium hexafluorophosphate] ?
[out] 1227.1

[in] Could you share which mass density value was measured for CCCCCCn1cc[n+](C)c1.F[P-](F)(F)(F)(F)F [1-hexyl-3-methylimidazolium hexafluorophosphate] ?
[out] 1283.1
